# test-details: protein stability index of a GFP-peptide fusion (GPS, HEK-293T) (PSI 1-6); higher = more stable;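 also: 24-mer peptide tiles fused after GFP, lentivirally expressed, FACS-sorted into six equal bins by GFP/DsRed ratio, decoded by Illumina sequencing, PSI is the read-weighted mean bin number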
# reported-conditions: treatment: MLN4924 1 uM, 8 h; c terminus: a fixed tail appended
reported-property: protein stability index
Write no unit; give the number alone.

[[record]]
sequence_text = "RSPLVSGDESSLLLNAASTVARPV [RHOBTB3]"
numeric_value = 4.25

[[record]]
sequence_text = "CQDSSGEVSCQCQLHPPRWYSRLQ"
numeric_value = 2.81

[[record]]
sequence_text = "ERLERAVSDRLAPGAPRGNPPKAS [MYCL]"
numeric_value = 5.23

[[record]]
sequence_text = "VQGIGIPLVTAIEIVSIWILSFIL [EDNRA]"
numeric_value = 2.42


stdin: Sample VGDALEEVLSKALSQRTITVGVYE [GADD45A] — what was its protein stability index?
stdout: 2.47

stdin: Sample AQALGYYYVLEPRVVDGTPCSPDS [ADAMTS4] — what was its protein stability index?
stdout: 2.7

stdin: Sample EIIKVTEQLIEAISNGDFESYTKM [CAMK2A] — what was its protein stability index?
stdout: 1.91

stdin: Sample AWLEGRIRQEFDKLREFLRVEEQA [TRIM35] — what was its protein stability index?
stdout: 2.94

stdin: Sample FYDKQLKVLLSGATFLVTFGNSEK [ZFYVE21] — what was its protein stability index?
stdout: 2.54

stdin: Sample QELLKRTIMQAVSQIRLNREHKET [TEKT4] — what was its protein stability index?
stdout: 2.79

###

Each record here notes measured protein stability index.
# test-details: protein stability index of a GFP-peptide fusion (GPS, HEK-293T) (PSI 1-6); higher = more stable
# reported-conditions: treatment: MLN4924 1 uM, 8 h; c terminus: a fixed tail appended
Write no unit; give the number alone.

As a guide, the following entries are already answered.
[[record]]
sequence_text = "LLGFLRIRVRGQRASRLQAPVLVA [LPCAT4]"
numeric_value = 2.12

[[record]]
sequence_text = "RDVAAWGRARATGGDLEEQQHAEG [DNAAF3]"
numeric_value = 5.3

[[record]]
sequence_text = "HHVEREKDHSSSRPSSPRPQKASP [BTBD10]"
numeric_value = 5.54

[[record]]
sequence_text = "EQEDPADYCKGGYHPVKIGDLFNG [SRPK2]"
numeric_value = 3.98

[[record]]
sequence_text = "CSSPGVQACSLPASCCIDPREDGA [TSPAN10]"
numeric_value = 4.6


stdin: Sample LEEALYEYQPLQIETYGPHVPELE [MNAT1] — what was its protein stability index?
stdout: 3.65

stdin: Sample VASAPLQPPVPSLSEVKPPPPPPP [TRADD] — what was its protein stability index?
stdout: 4.71

stdin: Sample PDTAPPSERPLEDLRLRLDHLGWV [RTN2] — what was its protein stability index?
stdout: 3.24

stdin: Sample AACIAYIRLTQYIDGQGRPRTSQS [CAMK2B] — what was its protein stability index?
stdout: 2.48

stdin: Sample TGSKEKGLTKKRTKVQKKSLLLKK [NOP53] — what was its protein stability index?
stdout: 4.72

###

# test-details: protein stability index of a GFP-peptide fusion (GPS, HEK-293T) (PSI 1-6); higher = more stable
# reported-conditions: treatment: MLN4924 1 uM, 8 h; c terminus: a fixed tail appended
Each record here notes measured protein stability index.

[[record]]
sequence_text = "ERGLKKIRLGIEGYPTYKEKVKKR [BTBD10]"
reported_property = "protein stability index"
result = 3.66

[[record]]
sequence_text = "LSLESEGAGEGAAASPELSALEEA [TPPP]"
reported_property = "protein stability index"
result = 5.58


Kindly consider the entry below.
stdin: Sample SPAEDFVLVAETTMARIRRVYVSG [APMAP] — what was its protein stability index?
stdout: 2.05
